# ASSAY_METHOD_TEXT: NCI Yeast Anticancer Drug Screen. Data for the rad50 strain (AID 155);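 also: 0% = growth of vehicle-only cultures of the same strain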
# MEASUREMENT_SETUP: S. cerevisiae rad50 strain growth inhibition; at 50.0 µM; active compounds read high
About 79,000 compounds went through this panel and 15% of them were active in at least one assay; those are over-represented in the sample as a whole.
The threshold is inclusive: growth inhibition of exactly -10% counts as 1.0; values below receive 0.0.

OC(NN=C1CCCC1)(C(F)(F)Cl)C(F)(F)Cl
0.0
Cc1cc(C(O)CCCc2ccccc2)cc(C)c1O (stereo unspecified)
1.0
CCO/C=C1/N=C(c2ccc3ccccc3c2)OC1=O
1.0
Nc1nc(N)c2nc(-c3ccc(N(CCO)CCO)cc3)c(N)nc2n1
0.0
Nc1cccc(OCC(O)CN2CCN(c3ccccc3)CC2)c1 (stereo unspecified)
1.0

# bool: growth inhibition of "CC(=O)/C(=C/n1c(=S)sc2ccccc21)C(=O)Nc1ccc([N+](=O)[O-])cc1" >= -10%
1.0
